Target: T1, recombinant human CTLA4 protein with human IgG1 Fc tag at the C-terminus (Acro biosystems, Cat#CT4-H5255) (human, UniProt P16410 37-162)
T1 construct: bought protein; also called human CTLA4-Fc; CTLA4-Fc; not shown: human IgG1 Fc tag at the C-terminus
T1 sequence (looked up): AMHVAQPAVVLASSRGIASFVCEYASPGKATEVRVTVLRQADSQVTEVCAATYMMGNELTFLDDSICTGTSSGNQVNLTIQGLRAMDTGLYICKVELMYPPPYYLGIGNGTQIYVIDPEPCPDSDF
Assay: competitive ELISA: antibody pre-mixed with biotin human CTLA4-Fc, added to plate coated with the benchmark; competitor: coated Yervoy
The entries below are paired with their reported IC50.
Enter your answer as a number in pM; do not include the unit.

Some binders with recorded IC50:
| BINDER | IC50, pM |
| --- | --- |
| huD1D5-V9 (antibody, human IgG4 S228P, kappa, V domains shown, humanized IgG4/kappa; cell supernatant on Octet, purified antibody in Biacore, ELISA, FACS and the functional assay; also called hu CTLA4 D1D5-V9; huDID5-V9) VH: EVQLVESGGGLVKPGGSLRLSCAASGFTFSDYGMAWVRQAPGKGPEWVAFISNLAYSVYYADTETGRFTISRDDAKNSLYLQMNSLRAEDTAVYYCARSGLPYAMDYWGQGTTVTVSS VL: DIQMTQSPSSLSASVGDRVTITCRASQDISNYLNWYQQKPGKVPKLLIYYISRLHSGVPSRFSGSGSGTDFTLTISSLQPEDVATYYCQQGRMLPWTFGGGTKVEIKR | 642 |
| huC1D1-V8 (antibody, human IgG4 S228P, kappa, V domains shown, humanized IgG4/kappa; cell supernatant on Octet, purified antibody in Biacore, ELISA, FACS and the functional assay; also called hu CTLA4 C1D1-V8) VH: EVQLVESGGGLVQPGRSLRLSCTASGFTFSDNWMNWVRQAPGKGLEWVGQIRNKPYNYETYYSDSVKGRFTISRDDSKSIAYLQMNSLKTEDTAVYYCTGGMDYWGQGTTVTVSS VL: DIQMTQSPSSLSASVGDRVTITCGASEIIYGALNWYQQKPGKSPKLLIYGATNLADGVPSRFSGSGSGTDFTLTISSLQPEDVATYYCQKILSPPPWTFGGGTKVEIKR | 1710 |

Would you kindly share the measured IC50 for chimeric D1D5 anti-CTLA4 antibody (antibody, human IgG4 S228P, kappa, V domains shown, mouse variable domains on human IgG4/kappa, made in 293F cells) VH: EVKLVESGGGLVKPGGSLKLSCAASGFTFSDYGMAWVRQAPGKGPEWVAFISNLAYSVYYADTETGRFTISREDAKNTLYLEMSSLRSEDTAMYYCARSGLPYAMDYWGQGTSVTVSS VL: DIQMTQTTSSLSASLGDRVTISCRASQDISNYLNWYQQKPDGTVKLLIYYISRLHSGVPSRFSGSGSGTDFSLTISNLEQEDIATYFCQQGRMLPWTFGGGTRLEIKR ?
785
